System: UACC-257 melanoma
Experiment: NCI tumour cell line growth inhibition, 48 h
Property Name: GI50

Solved cases (2 shown):
Molecule	GI50
Nc1ncc(-c2cnn(C3CCNCC3)c2)cc1-c1nc2cc(Cl)ccc2o1	1.29 µM
Cc1cc(Cl)ccc1OCC(=O)Nc1nc2c(Cl)cccc2s1	> 100 µM

Then there is this molecule:
The molecule identified as C#CC1(O)C(COP(=O)(O)OCC(COP(=O)(O)OCC2OC(n3cc(F)c(=O)[nH]c3=O)CC2O)OCCCCCCCCCCCCCCCCCC)OC(n2ccc(N)nc2=O)C1O (stereo not drawn) registered its GI50 at 0.448 µM

* * *

System: NCI-H460 lung
Assay: NCI tumour cell line growth inhibition, 48 h
Property Name: TGI

Noted TGI for O=C(Nc1ccc(C(F)(F)F)cc1[N+](=O)[O-])C(=O)C1NC(=S)NC1=O (stereo unspecified) , tested on NCI-H460 lung: > 100 µM

Noted TGI for NC1=NN(c2ccccc2)C(=O)C1C(=O)CCC(=O)Nc1cccc(Cl)c1 (stereo unspecified) , tested on NCI-H460 lung: > 100 µM

Noted TGI for "CN(C)CCNC(=O)c1cccc2c(=O)c3ccccc3oc12" , tested on NCI-H460 lung: > 79.5 µM

Noted TGI for "O=C(O)c1ccc(CN2CCC(CN[C@@H]3C[C@H]3c3ccccc3)CC2)cc1" , tested on NCI-H460 lung: > 100 µM

Noted TGI for "CCCCC1(NN=C2CCCCC2)C(=O)N(c2ccccc2)N(c2ccccc2)C1=O" , tested on NCI-H460 lung: > 100 µM

Noted TGI for "CNC(=O)OCc1c(COC(=O)NC)c(-c2ccc(-c3ccccc3)cc2)n(C)c1C" , tested on NCI-H460 lung: 12.2 µM

Noted TGI for "C[C@]12CCc3sc(Nc4ccc(OC(F)(F)F)cc4)nc3C1=CC[C@@H]1[C@@H]2CC[C@]2(C)C(=O)CC[C@@H]12" , tested on NCI-H460 lung: 11.8 µM

Noted TGI for "CCCCCCCCCCCCCP(=O)(O)O" , tested on NCI-H460 lung: > 100 µM

Noted TGI for "O=C(/C=C/c1ccccc1)Nc1ncc(Cc2ccccc2Cl)s1" , tested on NCI-H460 lung: > 100 µM

Noted TGI for "COc1ccc([C@@]2(O)c3c(ccc(O)c3OC)[C@H]2OC)c(OC)c1" , tested on NCI-H460 lung: > 100 µM

Noted TGI for "Nc1ncc(-c2cnn(C3CCNCC3)c2)cc1-c1nc2cc(Cl)ccc2o1" , tested on NCI-H460 lung: 3.28 µM

Noted TGI for CC1(C)C2CCC1(C)C(N/C(Sc1ccccc1)=C(/C(Cl)=C(Cl)Cl)[N+](=O)[O-])C2 (stereo unspecified) , tested on NCI-H460 lung: 32.7 µM

Noted TGI for "COc1ccc(NC(=O)CC/C(CC(=O)c2ccco2)=N/NC(=O)C(N)=O)cc1" , tested on NCI-H460 lung: > 100 µM

Noted TGI for NC(CSC(c1ccccc1)(c1ccccc1)c1ccccc1)C(=O)NCC(=O)O (stereo unspecified) , tested on NCI-H460 lung: 78.8 µM

Noted TGI for O=C1/C(=C/C=C/c2ccccc2)CCC1CNc1ccccc1 (stereo unspecified) , tested on NCI-H460 lung: > 100 µM

Noted TGI for CCOC1C(Br)Cn2c(=O)c3cc4ccccc4cc3c(=O)n2C1C (stereo unspecified) , tested on NCI-H460 lung: > 100 µM

Reference for the values: PubChem BioAssay (NCI)
